- ASSAY_EXPLANATION: Volume of distribution at steady state in beagle dog at 2 mg/kg, iv
- Format: ADME, organism-based, Canis lupus familiaris
- CONDITION_INFO: in vivo, read-out: Vdss
PARAMETER: Vd (L/kg)
Provide only the numeric value, understood in L/kg.

Prompt: What value of Vd has been reported for the following compound? `COc1cc(N2C(=O)N(Cc3c(F)cc(F)cc3F)c3ccccc3S2(=O)=O)cnc1OC`
Response: 3.6

----------
- ASSAY_EXPLANATION: Half life in cynomolgus monkey hepatocytes
- Assay type: ADME, cell-based, Macaca fascicularis, Hepatocyte
PARAMETER: half-life

Prompt: What value of half-life has been reported for the following compound? `COc1cc(N2C(=O)N(Cc3c(F)cc(F)cc3F)c3ncccc3S2(=O)=O)cnc1OC`
Response: > 4.17 h
